The following molecules are shown together with reported MIC90 values.
test system: Mycobacterium tuberculosis; experiment: Antibacterial activity against Mycobacterium tuberculosis H37Rv after 6 days by Alamar blue dye-based colorimetric assay; assay type: functional; details: 144 h
readout kind: MIC90

# smiles structure, readout kind, endpoint result
measured = [
    ("C=C/C(C)=C/[C@@]1(C)SC(=O)C=C1O", "MIC90", "> 100 µg/mL"),
    ("C=C/C(C)=C/[C@@]1(C)SC(=O)C(CCCCc2ccc(F)cc2)=C1O", "MIC90", "> 100 µg/mL"),
    ("C=C/C(C)=C/[C@@]1(C)SC(=O)C=C1OCC(=O)NCCN=[N+]=[N-]", "MIC90", "> 100 µg/mL"),
]
